TARGET DESC: gp4 WT (T7 primase-helicase) (bacteriophage T7, UniProt P03692 1-566)
ASSAY OVERVIEW: double-filter binding; 1 mM [beta,gamma-CH2] dTTP, 10 mM MgCl2; Filter binding: 40 mM Tris-HCl pH 7.5, 50 mM potassium glutamate, 10 mM MgCl2, 5 mM DTT, 1 mM [beta,gamma-CH2] dTTP, 30 min, 25 C; mass photometry: 40 mM Tris-HCl pH 7.5, 150 mM KCl, 10 mM MgCl2, 25 C, 8.7 nM gp4 hexamer, 10 nM ssDNA
EXPERIMENTAL PARAMETERS: protein: recombinant; tags: His (implied: pET28, TALON); chain copies: 6; label: 5'-32P; single strand
pKd: −log10 of the molar value.

BINDER: ATGACCATGATTTCGACGTTTTTTTTTTTGGGGATCCTCTAACCTGCGCA (ssDNA) [50-nt ssDNA, 5'-32P]
pKd: 7.85
